system: HBV in 2.2.15 cells; assay: 2.2.15 cells: viral product in cell lysates quantified via quantitative real time PCR; format: cell-based, hepatitis B virus (HBV); conditions: Hepatitis B virus, 120 h, day 5 post treatment, 50% reduction of viral product vs no drug controls, readout (qPCR, HBsAg or HBeAg) not specified for the column
compounds and their reported EC50

The cases that follow already have their EC50 on record.
CC(C)(C)[C@@H]1Cn2nc(-c3ccc(F)c4c3OCO4)cc2-c2cc(=O)c(C(=O)O)cn21
< 0.1 µM
CC(C)(C)[C@@H]1Cn2nc(-c3ccc(F)cc3)c(F)c2-c2cc(=O)c(C(=O)O)cn21
< 0.1 µM
CC(C)(C)[C@@H]1Cn2nc(-c3cccc4nsnc34)cc2-c2cc(=O)c(C(=O)O)cn21
< 0.1 µM

-- ask What measured EC50 is associated with CCOc1ccc(OC)cc1-c1cc2n(n1)C[C@@H](C(C)(C)C)n1cc(C(=O)O)c(=O)cc1-2 on HBV in 2.2.15 cells?
-- reply < 0.1 µM

-- ask What measured EC50 is associated with CC(C)(C)[C@@H]1Cn2nc(-c3ccc(F)cc3F)cc2-c2cc(=O)c(C(=O)O)cn21 on HBV in 2.2.15 cells?
-- reply < 0.1 µM

-- ask What measured EC50 is associated with CC(C)(C)[C@@H]1Cn2nc(-c3ccc(Cl)cc3)cc2-c2cc(=O)c(C(=O)O)cn21 on HBV in 2.2.15 cells?
-- reply < 0.1 µM

-- ask What measured EC50 is associated with CC(C)(C)[C@@H]1Cn2nc(-c3cccc4c3OC(F)(F)O4)cc2-c2cc(=O)c(C(=O)O)cn21 on HBV in 2.2.15 cells?
-- reply < 0.1 µM

-- ask What measured EC50 is associated with CC(C)(C)[C@@H]1Cn2cnc(-c3ccc(F)cc3)c2-c2cc(=O)c(C(=O)O)cn21 on HBV in 2.2.15 cells?
-- reply < 0.1 µM

-- ask What measured EC50 is associated with CC(C)(C)[C@@H]1Cn2nc(C3CC3)c(-c3cccs3)c2-c2cc(=O)c(C(=O)O)cn21 on HBV in 2.2.15 cells?
-- reply < 0.1 µM

-- ask What measured EC50 is associated with CC(C)(C)[C@@H]1Cn2nc(-c3ccoc3)cc2-c2cc(=O)c(C(=O)O)cn21 on HBV in 2.2.15 cells?
-- reply 0.2 to 1 µM

-- ask What measured EC50 is associated with CC(C)(C)[C@@H]1Cn2nc(C3CC3)c(-c3cccc(F)c3)c2-c2cc(=O)c(-c3ncn[nH]3)cn21 on HBV in 2.2.15 cells?
-- reply < 0.1 µM

-- ask What measured EC50 is associated with COc1cccc(F)c1-c1cc2n(n1)C[C@@H](C(C)(C)C)n1cc(C(=O)O)c(=O)cc1-2 on HBV in 2.2.15 cells?
-- reply 0.2 to 1 µM

-- ask What measured EC50 is associated with CC(C)(C)[C@@H]1Cn2ncc(-c3ccco3)c2-c2cc(=O)c(C(=O)O)cn21 on HBV in 2.2.15 cells?
-- reply < 0.1 µM

-- ask What measured EC50 is associated with CC(C)(C)[C@@H]1Cn2ncc(-c3cccs3)c2-c2cc(=O)c(C(=O)O)cn21 on HBV in 2.2.15 cells?
-- reply < 0.1 µM

-- ask What measured EC50 is associated with Cc1cc(-c2cc3n(n2)C[C@@H](C(C)(C)C)n2cc(C(=O)O)c(=O)cc2-3)c(F)cc1F on HBV in 2.2.15 cells?
-- reply < 0.1 µM

-- ask What measured EC50 is associated with CC(C)(C)[C@@H]1Cn2ncc(-c3c(F)ccc4c3OCO4)c2-c2cc(=O)c(C(=O)O)cn21 on HBV in 2.2.15 cells?
-- reply < 0.1 µM

-- ask What measured EC50 is associated with CC(C)(C)[C@@H]1Cn2nc(-c3ccc(F)cc3)c(-c3ccc(F)cc3)c2-c2cc(=O)c(-c3ncn[nH]3)cn21 on HBV in 2.2.15 cells?
-- reply < 0.1 µM

-- ask What measured EC50 is associated with CC(C)(C)[C@@H]1Cn2nc(-c3cccc(F)c3)c(-c3cccc(F)c3)c2-c2cc(=O)c(-c3ncn[nH]3)cn21 on HBV in 2.2.15 cells?
-- reply < 0.1 µM

-- ask What measured EC50 is associated with COc1cccc(C)c1-c1cc2n(n1)C[C@@H](C(C)(C)C)n1cc(C(=O)O)c(=O)cc1-2 on HBV in 2.2.15 cells?
-- reply 0.2 to 1 µM

-- ask What measured EC50 is associated with CC(C)(C)[C@@H]1Cn2nc(-c3ccc(F)cc3)c(-c3ccccc3)c2-c2cc(=O)c(C(=O)O)cn21 on HBV in 2.2.15 cells?
-- reply < 0.1 µM

-- ask What measured EC50 is associated with CC(C)(C)[C@@H]1Cn2nc(-c3ccccc3F)c(-c3ccccc3F)c2-c2cc(=O)c(C(=O)O)cn21 on HBV in 2.2.15 cells?
-- reply < 0.1 µM

-- ask What measured EC50 is associated with CC(C)(C)[C@@H]1Cn2nc(-c3cccc4nonc34)cc2-c2cc(=O)c(C(=O)O)cn21 on HBV in 2.2.15 cells?
-- reply < 0.1 µM

-- ask What measured EC50 is associated with CC(C)(C)[C@@H]1Cn2nc(-c3cccc4c3OCCO4)cc2-c2cc(=O)c(C(=O)O)cn21 on HBV in 2.2.15 cells?
-- reply < 0.1 µM

-- ask What measured EC50 is associated with CC(C)[C@@H]1Cn2nc(-c3ccc(F)cc3)c(-c3ccc(F)cc3)c2-c2cc(=O)c(C(=O)O)cn21 on HBV in 2.2.15 cells?
-- reply < 0.1 µM
